Target: Gal(b1-3)GalNAc
Assay: glycan array binding signal (z-score within array); higher = stronger binding
Conditions: glycan notation: IUPAC condensed, linker removed
About 410 targets per protein were measured; listed, in parts, are those with the strongest signals and a random draw of the rest.
Parameter: glycan array binding signal (z-score)

[in] Recorded glycan array binding signal (z-score) of ASA (Allium sativum) (protein) KAHEKERMGRNTPSAKLMSIAAVAAILTILASTCMARNLLTNGEGLYAGQSLNVEPYHFIMQEDCNLVLYDHSTAVWATNTDIPGKKECRAVLQSDGNFVVYDADGRPLWASHSVRGNGNYVLVLQEDGNVVIYGSDIWSTGTYVKAARGPVVVAMNGTVDGGSLIRPVIVNKNHVPVIRKVGTLSRNILRNDEGLYAGQSLDVEPYHFIMHEDCNLVLYDHSTAVWASNTDIPGKKGCKAVLQSDGNFVVYDAEGRSLWASHSVRGNGNYVLVLQEDGNVVIYGSDIWSTDTYRKSARGPVIRKVGTLAGAA , please.
[out] -0.222

New cases:
[in] Recorded glycan array binding signal (z-score) of Tectonin 2 (Laccaria bicolor) (protein) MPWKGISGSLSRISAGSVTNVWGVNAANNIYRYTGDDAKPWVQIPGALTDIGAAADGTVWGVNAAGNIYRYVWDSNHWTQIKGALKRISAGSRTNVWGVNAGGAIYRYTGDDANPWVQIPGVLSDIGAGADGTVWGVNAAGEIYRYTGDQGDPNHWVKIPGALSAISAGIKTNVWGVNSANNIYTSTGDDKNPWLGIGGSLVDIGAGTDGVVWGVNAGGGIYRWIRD , please.
[out] -0.212
